tested on: MDA-MB-231 breast; experiment: NCI tumour cell line growth inhibition, 48 h
The entries below come with measured TGI values attached.

Compound	TGI
O=C(NNc1nc(-c2ccccc2)cs1)C(F)(F)F	> 100 µM
S=C(Nc1ccc2cn[nH]c2c1)Nc1ccc2cn[nH]c2c1	> 100 µM
COc1cc(N(Cc2ccc3oc(=O)c(-c4ccccc4)nc3c2)Cc2ccc3oc(=O)c(-c4ccccc4)nc3c2)cc(OC)c1OC	> 10 µM
CCOc1cc(NC(C)=O)ccc1C(=O)NN1C(=O)CSC1c1ccccc1 (stereo not given)	> 100 µM
O=C1NC(=NCCCc2ccccc2)S/C1=C\c1ccc2ncccc2c1	> 22.5 µM
